Target or system: RXRβ (UniProt P28704)
Experiment notes: ligand binding assay
Assay context: read-out: RXR Bind Ki (nM) β
Metric: Ki

Cpd smiles: CC1=CCC(C)(C)c2cc(N(C)c3ccc(C(=O)O)cc3)c(C)cc21
Target or system: RXRβ (UniProt P28704)
Ki: > 1000 nM

Cpd smiles: CC1=CCC(C)(C)c2cc(N(C)c3ccc(C(=O)O)cc3)ccc21
Target or system: RXRβ (UniProt P28704)
Ki: > 1000 nM

Cpd smiles: CCN(c1ccc(C(=O)O)cc1)c1cc2c(cc1C)C(C)=CCC2(C)C
Target or system: RXRβ (UniProt P28704)
Ki: > 1000 nM

Cpd smiles: CCN(c1ccc(C(=O)O)cc1)c1cc2c(cc1C)C(C(C)C)=CCC2(C)C
Target or system: RXRβ (UniProt P28704)
Ki: > 1000 nM

Ki lookup needed for `CCCN(c1ccc(C(=O)O)cc1)c1cc2c(cc1C)C(C)=CCC2(C)C` , thanks.
> 10000 nM

Origin of measurements: patent US20030166932A1
